Data origin, for the record: patent US20210395344A1

biological target: SARS-CoV-2 S1 (antigen of the Carterra SPR kinetics) (SARS-CoV-2, UniProt P0DTC2 16-685); assay: Carterra SPR
pKd: −log10 of the molar value.
endpoint.name: pKd

binder	numeric.result
1-7 (antibody, V domains shown, also called variant 1-7) VH: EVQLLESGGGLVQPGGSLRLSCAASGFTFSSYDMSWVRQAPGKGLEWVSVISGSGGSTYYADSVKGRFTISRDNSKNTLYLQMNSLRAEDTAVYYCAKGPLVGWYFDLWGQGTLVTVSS VL: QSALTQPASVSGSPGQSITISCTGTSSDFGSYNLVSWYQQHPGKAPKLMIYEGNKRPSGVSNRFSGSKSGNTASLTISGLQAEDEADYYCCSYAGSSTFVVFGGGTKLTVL	6.90
1-31 (antibody, V domains shown, also called variant 1-31) VH: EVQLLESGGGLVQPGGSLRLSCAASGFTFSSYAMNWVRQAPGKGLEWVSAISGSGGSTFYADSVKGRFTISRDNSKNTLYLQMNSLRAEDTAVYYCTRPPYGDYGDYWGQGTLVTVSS VL: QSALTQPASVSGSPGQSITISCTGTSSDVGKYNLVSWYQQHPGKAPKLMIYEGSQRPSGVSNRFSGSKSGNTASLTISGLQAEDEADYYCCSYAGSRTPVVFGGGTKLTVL	7.43
1-42 (antibody, V domains shown, also called variant 1-42) VH: EVQLLESGGGLVQPGGSLRLSCAASGVTFSSYAMSWVRQAPGKGLEWVSAITGSGGSTYYADSVKGRFTISRDNSKNTLYLQMNSLRAEDTAVYYCAKHGSGTIFGVVIAKYYFDYWGQGTLVTVSS VL: QSALTQPASVSGSPGQSITISCTGTSSDVGRYNLVSWYQQHPGKAPKLMIYEGGKRPSGVSNRFSGSKSGNTASLTISGLQAEDEADYYCCSYASSSTLVFGGGTKLTVL	6.95
1-5 (antibody, V domains shown, also called variant 1-5) VH: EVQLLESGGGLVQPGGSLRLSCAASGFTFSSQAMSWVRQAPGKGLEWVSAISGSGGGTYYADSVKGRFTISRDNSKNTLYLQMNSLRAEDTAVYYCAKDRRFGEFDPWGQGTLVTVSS VL: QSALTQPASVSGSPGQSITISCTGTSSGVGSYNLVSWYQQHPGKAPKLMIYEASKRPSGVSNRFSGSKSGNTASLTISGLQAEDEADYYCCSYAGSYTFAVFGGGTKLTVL	4.60
1-28 (antibody, V domains shown, also called variant 1-28) VH: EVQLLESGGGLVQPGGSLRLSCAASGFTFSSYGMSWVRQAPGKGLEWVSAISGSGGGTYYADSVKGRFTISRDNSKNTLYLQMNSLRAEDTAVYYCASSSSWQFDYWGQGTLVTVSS VL: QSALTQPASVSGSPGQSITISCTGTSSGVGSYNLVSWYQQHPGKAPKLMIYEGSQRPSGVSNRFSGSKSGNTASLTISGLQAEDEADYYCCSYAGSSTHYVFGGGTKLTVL	7.13
